- Test system: Felis catus
- test_protocol: In vivo inhibition of beta-2 adrenergic receptor in cat assessed as inhibition of isoproterenol-induced vasodepressor response at ED50 administered as 30 mins of infusion measured at 30 mins relative to control
- Format: functional
readout_kind: inhibition (INH) (%)
Please state the figure in %; there is no need to write the unit.

Before answering, review these 3 worked examples.
- molecule: "CCNC(=O)Nc1ccccc1OCC(O)CNC(C)C (configuration not stated)"
  readout_kind: "inhibition (INH)"
  endpoint_value: 103
- molecule: "C=CCNC(=O)Nc1ccc(OCC(O)CNC(C)(C)C)c(C)c1 (configuration not stated)"
  readout_kind: "inhibition (INH)"
  endpoint_value: 32
- molecule: "C=CCc1cc(NC(=O)NCC)ccc1OCC(O)CNC(C)C (configuration not stated)"
  readout_kind: "inhibition (INH)"
  endpoint_value: 68

Recorded inhibition (INH) for CCCCNC(=O)Nc1ccc(OCC(O)CNC(C)(C)C)c(C)c1 (configuration not stated) , please? 11

Recorded inhibition (INH) for CCCc1cc(NC(=O)NC)ccc1OCC(O)CNC(C)(C)C (configuration not stated) , please? 7

Recorded inhibition (INH) for CNC(=O)Nc1ccc(OCC(O)CNC(C)C)c(C(C)=O)c1 (configuration not stated) , please? 43

Recorded inhibition (INH) for CC(C)NCC(O)COc1cccc(NC(N)=O)c1 (configuration not stated) , please? 58

Recorded inhibition (INH) for CNC(=O)Nc1ccc(OCC(O)CNC(C)(C)C)cc1 (configuration not stated) , please? 0

Recorded inhibition (INH) for CCCNC(=O)Nc1ccc(OCC(O)CNC(C)C)cc1 (configuration not stated) , please? 0

Recorded inhibition (INH) for CCCCCCCCNC(=O)Nc1ccc(OCC(O)CNC(C)C)c(C)c1 (configuration not stated) , please? 28

Recorded inhibition (INH) for C=CCNC(=O)Nc1ccc(OCC(O)CNC(C)C)c(C)c1 (configuration not stated) , please? 12

Recorded inhibition (INH) for CCCCCCNC(=O)Nc1ccc(OCC(O)CNC(C)C)c(C(C)=O)c1 (configuration not stated) , please? 0

* * *

- System: Felis catus
- test_protocol: In vivo inhibition of beta-1 adrenergic receptor in cat assessed as inhibition of isoproterenol-induced tachycardia administered as 30 mins of infusion measured at 30 mins by cardiotachometer
- Type: functional
- assay_conditions: 0.5 h
Please note: ED50 exactly at 0.2 mg/kg is -1. Only values below 0.2 mg/kg get 1.

A selection of reference data follows.
- compound: "CC(=O)Nc1ccc(OCC(O)CNC(C)C)cc1 (stereo not drawn) [PRACTOLOL]"
  qualitative_label: 1
- compound: "CCNC(=O)Nc1ccc(OCC(O)CNC(C)C)c(OCC)c1 (stereo not drawn)"
  qualitative_label: -1
- compound: "CCCCNC(=O)Nc1ccc(OCC(O)CNC(C)C)cc1 (stereo not drawn)"
  qualitative_label: -1
- compound: "CCNC(=O)Nc1ccc(OCC(O)CNC(C)(C)C)c(I)c1 (stereo not drawn)"
  qualitative_label: 1
- compound: "CCNC(=O)Nc1ccc(OCC(O)CNC(C)C)c(C)c1 (stereo not drawn)"
  qualitative_label: -1
- compound: "CNC(=O)Nc1ccc(OCC(O)CNC(C)(C)C)c(Cl)c1 (stereo not drawn)"
  qualitative_label: 1
- compound: "CCCCCCNC(=O)Nc1ccc(OCC(O)CNC(C)C)c(C(C)=O)c1 (stereo not drawn)"
  qualitative_label: 1

Next, consider the following compound.
Consider the compound CC(C)NCC(O)COc1ccc(NC(=O)NC2CCCCC2)cc1Cl (stereo not drawn) . Is its ED50 strictly less than 0.2 mg/kg? -1
